- measured-on: Hck (UniProt P08631)
- Sequence (P08631 whole entry, looked up): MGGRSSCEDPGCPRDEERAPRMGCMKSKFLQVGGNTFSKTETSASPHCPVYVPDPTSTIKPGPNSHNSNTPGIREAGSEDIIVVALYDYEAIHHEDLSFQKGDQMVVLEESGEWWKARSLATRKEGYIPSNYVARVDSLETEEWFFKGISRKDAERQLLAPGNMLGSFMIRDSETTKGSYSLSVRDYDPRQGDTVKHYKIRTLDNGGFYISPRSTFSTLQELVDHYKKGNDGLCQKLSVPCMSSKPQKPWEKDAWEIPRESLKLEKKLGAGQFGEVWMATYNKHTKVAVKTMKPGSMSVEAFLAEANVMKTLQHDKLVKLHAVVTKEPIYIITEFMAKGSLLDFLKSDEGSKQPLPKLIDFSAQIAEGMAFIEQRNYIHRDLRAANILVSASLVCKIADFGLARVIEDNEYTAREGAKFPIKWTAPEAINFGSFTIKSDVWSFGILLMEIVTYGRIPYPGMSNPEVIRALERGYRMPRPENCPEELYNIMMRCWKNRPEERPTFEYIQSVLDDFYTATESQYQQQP
- protocol: phosphorylation enrichment, bacterial display (enrichment ratio); higher = better substrate or ligand; peptides without Tyr show the background;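 note: 11-residue human phosphosite peptides and single-mutation variants displayed on the E. coli surface, counted by deep sequencing, each peptide's frequency after selection divided by its frequency in the unselected input library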;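 note: frequency after pTyr selection over input frequency; kinase dosed for 20-30% of maximal phosphorylation in three min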
// phosphorylation enrichment lookup, one value per entry

- biosequence: "NTFEKYLGEEF [TF_Y669_YF]"
  measured-on: "Hck (UniProt P08631)"
  phosphorylation enrichment: 0.479
- biosequence: "FSGQVYRQRRK [TH_Y230_D227G]"
  measured-on: "Hck (UniProt P08631)"
  phosphorylation enrichment: 0.718
- biosequence: "LKVQVYILGRE [ASS1_Y359_G356V]"
  measured-on: "Hck (UniProt P08631)"
  phosphorylation enrichment: 1.49
- biosequence: "KKHIPHREHKS [CSNK1G2_Y206_Y206H]"
  measured-on: "Hck (UniProt P08631)"
  phosphorylation enrichment: 1.72
- biosequence: "IALSKYGRVKR [FGF6_Y186]"
  measured-on: "Hck (UniProt P08631)"
  phosphorylation enrichment: 0.412
- biosequence: "MKGDFYCFLAE [YWHAG_Y131_R132C_YF]"
  measured-on: "Hck (UniProt P08631)"
  phosphorylation enrichment: 0.695
- biosequence: "QSMEPYTKQQL [STAT3_Y640_V637M]"
  measured-on: "Hck (UniProt P08631)"
  phosphorylation enrichment: 0.696
- biosequence: "CTTIHYNYMCH [TP53_Y234_N239H]"
  measured-on: "Hck (UniProt P08631)"
  phosphorylation enrichment: 0.49
- biosequence: "RPPFTYATLIH [FOXP3_Y342_R347H]"
  measured-on: "Hck (UniProt P08631)"
  phosphorylation enrichment: 2.06
- biosequence: "AQESNYRLLRR [SLC20A2_Y377]"
  measured-on: "Hck (UniProt P08631)"
  phosphorylation enrichment: 0.443
- biosequence: "EDASEYFENYI [PARP4_Y214]"
  measured-on: "Hck (UniProt P08631)"
  phosphorylation enrichment: 0.597
- biosequence: "GIVEDYRPRFF [ACVRL1_Y421_P424R_YF]"
  measured-on: "Hck (UniProt P08631)"
  phosphorylation enrichment: 0.427
- biosequence: "FHLLPYTVRAM [PARS2_Y93_YF]"
  measured-on: "Hck (UniProt P08631)"
  phosphorylation enrichment: 0.501
- biosequence: "KLSFSYGWALQ [ALDOB_Y302_R304W]"
  measured-on: "Hck (UniProt P08631)"
  phosphorylation enrichment: 0.509
- biosequence: "YLTSSYINIST [IL23R_Y178]"
  measured-on: "Hck (UniProt P08631)"
  phosphorylation enrichment: 0.637
- biosequence: "CTTIHYNYKCN [TP53_Y234_M237K]"
  measured-on: "Hck (UniProt P08631)"
  phosphorylation enrichment: 0.484
- biosequence: "KDGNGYISAAE [CALM1_Y100]"
  measured-on: "Hck (UniProt P08631)"
  phosphorylation enrichment: 0.542
- biosequence: "ASTHIYQIMNH [ITK_Y588_V587I]"
  measured-on: "Hck (UniProt P08631)"
  phosphorylation enrichment: 5.65
- biosequence: "EFLKNYFTDKA [DSG2_Y775_R773K]"
  measured-on: "Hck (UniProt P08631)"
  phosphorylation enrichment: 0.556
- biosequence: "YIPSNYVAEDR [FRK_Y104]"
  measured-on: "Hck (UniProt P08631)"
  phosphorylation enrichment: 0.501
- biosequence: "RGGDSYGGPPR [RBMX_Y190_R187G]"
  measured-on: "Hck (UniProt P08631)"
  phosphorylation enrichment: 0.656
- biosequence: "GKGGSYSKAEW [HLA-E_Y341]"
  measured-on: "Hck (UniProt P08631)"
  phosphorylation enrichment: 0.416
- biosequence: "KTDKKYLMIEE [BAG3_Y451]"
  measured-on: "Hck (UniProt P08631)"
  phosphorylation enrichment: 0.516
- biosequence: "EKESCYILHSS [PATJ_Y783_E779K]"
  measured-on: "Hck (UniProt P08631)"
  phosphorylation enrichment: 0.497
- biosequence: "AEMTGYVMTRW [MAPK13_Y182_V184M]"
  measured-on: "Hck (UniProt P08631)"
  phosphorylation enrichment: 0.561
- biosequence: "IKRIAYEFVEM [ADA_Y84]"
  measured-on: "Hck (UniProt P08631)"
  phosphorylation enrichment: 0.414
- biosequence: "WDLPEYSFKDP [ITGA3_Y237_S235P_YF]"
  measured-on: "Hck (UniProt P08631)"
  phosphorylation enrichment: 1.19
- biosequence: "PPSGEYFGHCG [TRIP6_Y275_Q278H]"
  measured-on: "Hck (UniProt P08631)"
  phosphorylation enrichment: 0.983
- biosequence: "VRFMANTDETF [F8_Y450_Y450N]"
  measured-on: "Hck (UniProt P08631)"
  phosphorylation enrichment: 0.462
